# assaySystem: PPARa (Homo sapiens, UniProt Q07869)
# Sequence (Q07869 200-468 limits assumed): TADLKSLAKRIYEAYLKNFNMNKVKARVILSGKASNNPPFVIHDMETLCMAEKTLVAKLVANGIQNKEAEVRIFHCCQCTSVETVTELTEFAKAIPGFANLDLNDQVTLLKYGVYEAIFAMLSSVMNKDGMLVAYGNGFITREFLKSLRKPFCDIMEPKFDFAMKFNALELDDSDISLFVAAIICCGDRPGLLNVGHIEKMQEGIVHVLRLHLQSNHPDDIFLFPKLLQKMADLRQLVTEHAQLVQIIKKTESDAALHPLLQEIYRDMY
# procedureText: Receptor reporter assay selectivity panel: PPARa
measurementKind: pIC50
The quantity pIC50 is defined as the negative base-10 logarithm of the molar concentration.

Consider "O=C(O)c1ccc(-c2nn(C(=O)c3c(Cl)cccc3C(F)(F)F)c3cccc(F)c23)c(F)c1" . Its measured pIC50 is 4.72

* * *

# assaySystem: RORγt-LBD (Homo sapiens, UniProt P51449)
# Construct: leader […]; made in house; host or cells: BL21(DE3) E. coli
# Sequence (P51449 259-518): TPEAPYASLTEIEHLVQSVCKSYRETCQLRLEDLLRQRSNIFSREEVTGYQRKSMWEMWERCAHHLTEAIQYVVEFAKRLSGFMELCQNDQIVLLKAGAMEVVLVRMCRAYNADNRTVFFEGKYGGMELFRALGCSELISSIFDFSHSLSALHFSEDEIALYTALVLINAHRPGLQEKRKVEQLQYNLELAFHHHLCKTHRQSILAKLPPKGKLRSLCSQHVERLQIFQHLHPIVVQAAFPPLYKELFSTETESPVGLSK
# procedureText: RORγt-LBD AlexaFluor-647-labelled MRL-871 competitive binding assay
# appliedConditions: 100 nM probe; mean±s.d.; read-out: MRL-871 AlexaFluor Probe Competition IC50
# Method: The plate was then incubated for 15 min at room temperature. […] TR-FRET intensity in the presence of RORγt was corrected for background and the KD determined using the One-site specific binding equation in Graph Pad Prism. […] IC50 values were determined by fitting per cent activity data to a four-parameter logistic dose–response equation in GraphPad Prism.
measurementKind: IC50 (µM)
Record the value in µM, omitting the unit from your answer.

Consider CC1(C(=O)O)CC=C(c2nn(C(=O)c3c(Cl)cccc3C(F)(F)F)c3cccc(F)c23)CC1 (stereo not shown) . Its measured IC50 is 0.0264

* * *

# assaySystem: MR (Homo sapiens)
# Sequence (P08235 1-984): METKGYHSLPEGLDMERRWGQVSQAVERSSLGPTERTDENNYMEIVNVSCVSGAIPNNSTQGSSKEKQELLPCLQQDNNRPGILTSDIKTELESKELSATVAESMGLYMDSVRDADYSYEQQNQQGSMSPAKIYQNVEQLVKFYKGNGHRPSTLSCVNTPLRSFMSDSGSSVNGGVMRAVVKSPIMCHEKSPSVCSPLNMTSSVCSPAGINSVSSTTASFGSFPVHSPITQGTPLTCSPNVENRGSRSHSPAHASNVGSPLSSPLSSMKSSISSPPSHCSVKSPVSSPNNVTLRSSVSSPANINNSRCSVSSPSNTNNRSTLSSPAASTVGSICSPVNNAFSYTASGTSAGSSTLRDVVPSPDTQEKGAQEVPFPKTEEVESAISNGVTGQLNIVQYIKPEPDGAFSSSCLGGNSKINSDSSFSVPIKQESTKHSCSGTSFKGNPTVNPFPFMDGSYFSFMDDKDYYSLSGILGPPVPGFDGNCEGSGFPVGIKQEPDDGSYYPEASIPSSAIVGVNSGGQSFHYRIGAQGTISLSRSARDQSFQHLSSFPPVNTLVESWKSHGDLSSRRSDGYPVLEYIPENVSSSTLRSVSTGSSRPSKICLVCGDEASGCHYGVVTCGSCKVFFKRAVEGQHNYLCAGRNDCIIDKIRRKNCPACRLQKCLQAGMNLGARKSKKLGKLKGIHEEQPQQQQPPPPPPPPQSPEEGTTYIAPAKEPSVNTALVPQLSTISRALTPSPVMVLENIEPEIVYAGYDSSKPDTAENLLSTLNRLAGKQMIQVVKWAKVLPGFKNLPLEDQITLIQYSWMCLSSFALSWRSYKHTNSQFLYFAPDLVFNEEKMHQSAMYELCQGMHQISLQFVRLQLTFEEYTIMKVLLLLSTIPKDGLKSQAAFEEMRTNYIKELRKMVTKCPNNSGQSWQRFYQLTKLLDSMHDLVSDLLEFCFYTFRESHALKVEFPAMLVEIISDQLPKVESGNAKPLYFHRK
# procedureText: Receptor reporter assay selectivity panel: MR
measurementKind: EC50

Tested on MR (Homo sapiens), the item "O=C(O)c1ccc(-c2nn(C(=O)c3c(Cl)cccc3C(F)(F)F)c3cccc(F)c23)c(F)c1" showed EC50 equal to > 30 µM
